# test details: growth suppression of beta-catenin knockout HCT116, pilot screen, human colon tumor cells (AID 823);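 also: 0% = wells killed by 20 µM Hyamine and 100% = untreated DMSO cell wells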
# measurement context: CellTiter-Glo, 60 h, at 10 µM, stronger effect = lower value
Inconclusive results are not listed.
The following molecules are listed with their measured viability values.
Numbers only; they are read as %.

Observe how each entry below is paired with its result.
• CSC1=NCCN1C(=O)c1ccco1 = 103
• O=C(Cn1c2c(c(-c3ccccc3)cc1=O)CCCC2)N1CCCCCC1 = 48.8
• COc1ccc(C(=O)Nc2ccc(S(=O)(=O)Nc3cc(C)nc(C)n3)cc2)c(OC)c1 = 98.6
• Cc1noc(C(=O)NCc2cccnc2)c1Cl = 110
• CCN(CC)S(=O)(=O)c1ccc(S(=O)(=O)N2CCN(CCC#N)CC2)cc1 = 99.6

Req: Can you look up the measured viability of CCN(CC)CC(=O)n1c2c(c3ccccc31)CCCC2 for me?
Resp: 94.5

Req: Can you look up the measured viability of CCc1ccc(NC(=O)c2cnc3n(c2=O)CCS3)cc1 for me?
Resp: 95.2

Req: Can you look up the measured viability of Cc1cc(Nc2ccc(F)cc2F)n2ncnc2n1 for me?
Resp: 96.5

Req: Can you look up the measured viability of COCn1c(-c2cccc(Br)c2)nc2ccccc21 for me?
Resp: 85.2

Req: Can you look up the measured viability of O=c1c(N2CCOCC2)nsnc1N1CCOCC1 for me?
Resp: 106

Req: Can you look up the measured viability of CCCSC1=N/C(=C\c2ccsc2)C(=O)S1 for me?
Resp: 95.1

Req: Can you look up the measured viability of CCOC(=O)c1[nH]c(C)c(C(=O)NC(C)CC)c1C (stereo not given) for me?
Resp: 103

Req: Can you look up the measured viability of CC(C)(C)n1nc2c(c1NC(=O)c1ccccc1F)CS(=O)C2 (stereo not given) for me?
Resp: 101

Req: Can you look up the measured viability of Cc1cc(C2N=C(N)Nc3nc4ccccc4n32)c(C)n1-c1ccccc1Cl (stereo not given) for me?
Resp: 9.19

Req: Can you look up the measured viability of CCN(CC)CCN=C1CCCc2ccccc2N1 for me?
Resp: 86.9

Req: Can you look up the measured viability of COC(=O)C1=C(O)CSC1=Nc1cccc(C(F)(F)F)c1 for me?
Resp: 101

Req: Can you look up the measured viability of COc1cccc(CNC(=O)Cn2cc3c(n2)CCCC3)c1 for me?
Resp: 100

Req: Can you look up the measured viability of CCCCOCCCNC(=O)Cc1cccs1 for me?
Resp: 91.8

Req: Can you look up the measured viability of O=C(Cn1cnc2c(nnn2-c2ccccc2)c1=O)NCc1ccco1 for me?
Resp: 104

Req: Can you look up the measured viability of O=C1c2oc3ccc(Cl)cc3c(=O)c2C(c2ccco2)N1CCN1CCOCC1 (stereo not given) for me?
Resp: 89.6

Req: Can you look up the measured viability of Cc1cc(C)c2c(=O)[nH]c(SCC(=O)N3CCCCC3)nc2n1 for me?
Resp: 93.1

Req: Can you look up the measured viability of N#CC1=C(N)Oc2c(sc3ccccc23)C1c1ccco1 (stereo not given) for me?
Resp: 63.3

Req: Can you look up the measured viability of c1ccc2cc3[nH]c(CN4CCCCC4)nc3cc2c1 for me?
Resp: 95.9

Req: Can you look up the measured viability of CCN(CC)C(=O)Cn1c(=O)n(-c2ccccc2)c(=O)n1CC(=O)N(CC)CC for me?
Resp: 103

Req: Can you look up the measured viability of c1ccc(-c2cnc(-c3cccnc3)o2)cc1 for me?
Resp: 95.5

Reference source for all entries: PubChem BioAssay
